Data provenance: paper PMC9231138

test system: U−2 OS cells; assay: MTT cell proliferation assay, U−2 OS cells; type: cell-based; settings: Homo sapiens, U2OS; MTT, 24 h; read-out: IC50 U−2 OS cells (24 h)

# molecule, target-or-system, output-unit, IC50
records = [
    ("Cc1coc2c1C(=O)C(=O)c1c-2ccc2c(C)cccc12 [DS−3, Tanshinone I]", "U−2 OS cells", "µM", 17.8),
    ("CC1=CCCc2c1ccc1c2C(=O)C(=O)c2c(C)coc2-1 [DS−4, 1,2-Dihydrotanshinquinone]", "U−2 OS cells", "µM", 22.1),
    ("C[C@H]1COC2=C1C(=O)C(=O)c1c2ccc2c1CCCC2(C)C [DS−2, Cryptotanshinone]", "U−2 OS cells", "µM", 47.8),
    ("Cc1coc2c1C(=O)C(=O)c1c-2ccc2c1CCCC2(C)C [DS−5, Tanshinone IIA]", "U−2 OS cells", "µM", 25.4),
]
